test-system: His-CypA (Homo sapiens, UniProt P62937)
Construct: made in house; host or cells: E. coli C41 BL21(DE3) ('C41 BL21(DH3)' [sic]); plasmid from the Edinburgh Protein Production Facility
Sequence (P62937 whole entry): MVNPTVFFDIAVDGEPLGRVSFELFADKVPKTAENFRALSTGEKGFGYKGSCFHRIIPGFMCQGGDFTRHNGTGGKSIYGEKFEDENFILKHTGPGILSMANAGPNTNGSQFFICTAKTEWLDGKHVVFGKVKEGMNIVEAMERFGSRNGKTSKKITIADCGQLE
test-name: Surface plasmon resonance (SPR) kinetic titration, BIAcore T200
Assay type: binding
endpoint-label: pKd
Scale: negative log10 of molar concentration, which is what pKd denotes.

Task: Which pKd is reported with His-CypA (Homo sapiens, UniProt P62937) for this entry: CCOC(=O)Cn1cc(CN(Cc2ccc(N)cc2)C(=O)NCC(=O)N2CCCC2c2ccccc2Br)nn1 (stereo not shown) [Compound 16] ?
Result: 5.37

* * *

test-system: His-CypA (Homo sapiens)
Construct: made in house; host or cells: E. coli C41 BL21(DE3) ('C41 BL21(DH3)' [sic]); plasmid from the Edinburgh Protein Production Facility
test-name: Surface plasmon resonance (SPR) kinetic titration, BIAcore T200
Assay type: binding
test-parameters: 25 °C, mean ± 1σ from three repeat experiments; read-out: Kd (SPR) CypA
endpoint-label: Kd (µM)
Value expressed in µM; do not type the unit.

Task: For the compound C#CCN(Cc1ccc(N)cc1)C(=O)NCC(=O)N1CCCC1c1ccccc1Br (stereo not shown) , what Kd is on record?
Result: 3.2

* * *

Property: pKd; scope: individual compounds
test-system: His-CypB (Homo sapiens, UniProt P23284)
Construct: plasmid from the Edinburgh Protein Production Facility
Sequence (P23284 34-216): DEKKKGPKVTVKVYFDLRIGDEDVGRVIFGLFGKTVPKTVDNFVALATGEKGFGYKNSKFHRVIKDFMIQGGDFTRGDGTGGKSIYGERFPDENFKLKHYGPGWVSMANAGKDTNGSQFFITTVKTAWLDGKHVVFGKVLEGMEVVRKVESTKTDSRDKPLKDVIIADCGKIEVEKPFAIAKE
test-name: biochemical
test-parameters: 25 °C, mean ± 1σ from three repeat experiments; read-out: Kd (SPR) CypB
Scale: negative log10 of molar concentration, which is what pKd denotes.

Task: For the compound C#CCN(Cc1ccc(N)cc1)C(=O)NCC(=O)N1CCCC1c1ccccc1Br (centres unmarked) , what pKd is on record?
Result: 5.85

Okay, next one:
Task: For the compound CCOC(=O)Cn1cc(CN(Cc2ccc(N)cc2)C(=O)NCC(=O)N2CCCC2c2ccccc2Br)nn1 (centres unmarked) , what pKd is on record?
Result: 5.72
